molecular target: human CDK4 and genetically truncated (1-264) cyclin D3 (Homo sapiens, UniProt P11802); assay: Inhibition of CDK4/Cyclin D Retinoblastoma Kinase Activity; assay type: biochemical; settings: at 0.03 μM
Sequence (P11802 whole entry, the tested form may be a part): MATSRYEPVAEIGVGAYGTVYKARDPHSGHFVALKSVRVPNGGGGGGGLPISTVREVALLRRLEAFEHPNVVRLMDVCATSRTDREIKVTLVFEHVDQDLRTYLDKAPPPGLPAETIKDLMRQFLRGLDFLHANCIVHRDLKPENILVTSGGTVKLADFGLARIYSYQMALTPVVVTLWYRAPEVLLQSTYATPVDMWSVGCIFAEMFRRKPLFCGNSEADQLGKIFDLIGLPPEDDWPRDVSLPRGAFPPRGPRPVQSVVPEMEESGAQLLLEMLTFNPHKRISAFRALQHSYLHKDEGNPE
Sequence (P30281 1-264 partner): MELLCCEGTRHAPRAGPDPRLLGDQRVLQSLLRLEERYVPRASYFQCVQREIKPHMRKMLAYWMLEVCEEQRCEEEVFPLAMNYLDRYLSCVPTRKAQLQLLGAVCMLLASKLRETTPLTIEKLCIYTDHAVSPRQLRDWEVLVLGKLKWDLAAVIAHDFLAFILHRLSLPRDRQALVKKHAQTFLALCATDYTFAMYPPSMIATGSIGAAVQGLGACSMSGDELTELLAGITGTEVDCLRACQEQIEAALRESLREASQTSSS
Please enter condition met where CDK4 % Inhibition at 0.03 μM is greater than or equal to 20%, and condition not met where it is lower.

[
  {
    "Compound": "COC(=O)c1ccc(C(=O)N2CCC(Nc3nc(N)c(C(=O)c4c(F)cccc4F)s3)CC2)cc1 [Example R151]",
    "Tgt": "human CDK4 and genetically truncated (1-264) cyclin D3 (Homo sapiens, UniProt P11802)",
    "Group": "condition met"
  },
  {
    "Compound": "CCCC(C)C(=O)N1CCC(Nc2nc(N)c(C(=O)c3c(F)cccc3F)s2)CC1 (stereo not shown)",
    "Tgt": "human CDK4 and genetically truncated (1-264) cyclin D3 (Homo sapiens, UniProt P11802)",
    "Group": "condition met"
  },
  {
    "Compound": "COc1ccc(C(=O)N2CCC(Nc3nc(N)c(C(=O)c4c(F)cccc4F)s3)CC2)c(OC)c1 [Example R8]",
    "Tgt": "human CDK4 and genetically truncated (1-264) cyclin D3 (Homo sapiens, UniProt P11802)",
    "Group": "condition not met"
  },
  {
    "Compound": "Cc1cc(C(=O)N2CCC(Nc3nc(N)c(C(=O)c4c(F)cccc4F)s3)CC2)n(C(C)(C)C)n1",
    "Tgt": "human CDK4 and genetically truncated (1-264) cyclin D3 (Homo sapiens, UniProt P11802)",
    "Group": "condition met"
  },
  {
    "Compound": "COC(C(=O)N1CCC(Nc2nc(N)c(C(=O)c3c(F)cccc3F)s2)CC1)(c1ccccc1)C(F)(F)F (stereo not shown) [Example R16]",
    "Tgt": "human CDK4 and genetically truncated (1-264) cyclin D3 (Homo sapiens, UniProt P11802)",
    "Group": "condition not met"
  },
  {
    "Compound": "COc1cc(Cl)ccc1C(=O)N1CCC(Nc2nc(N)c(C(=O)c3c(F)cccc3F)s2)CC1",
    "Tgt": "human CDK4 and genetically truncated (1-264) cyclin D3 (Homo sapiens, UniProt P11802)",
    "Group": "condition met"
  },
  {
    "Compound": "COc1ccc(C(=O)N2CCC(Nc3nc(N)c(C(=O)c4c(F)cccc4F)s3)CC2)cc1",
    "Tgt": "human CDK4 and genetically truncated (1-264) cyclin D3 (Homo sapiens, UniProt P11802)",
    "Group": "condition met"
  },
  {
    "Compound": "Cc1onc(-c2ccccc2Cl)c1C(=O)N1CCC(Nc2nc(N)c(C(=O)c3c(F)cccc3F)s2)CC1",
    "Tgt": "human CDK4 and genetically truncated (1-264) cyclin D3 (Homo sapiens, UniProt P11802)",
    "Group": "condition met"
  },
  {
    "Compound": "Nc1nc(NC2CCN(C(=O)C3(c4ccccc4)CCCC3)CC2)sc1C(=O)c1c(F)cccc1F",
    "Tgt": "human CDK4 and genetically truncated (1-264) cyclin D3 (Homo sapiens, UniProt P11802)",
    "Group": "condition not met"
  },
  {
    "Compound": "COc1ccc(Oc2ccc([N+](=O)[O-])cc2C(=O)N2CCC(Nc3nc(N)c(C(=O)c4c(F)cccc4F)s3)CC2)cc1",
    "Tgt": "human CDK4 and genetically truncated (1-264) cyclin D3 (Homo sapiens, UniProt P11802)",
    "Group": "condition met"
  },
  {
    "Compound": "CC(C)(Oc1ccc(Cl)cc1)C(=O)N1CCC(Nc2nc(N)c(C(=O)c3c(F)cccc3F)s2)CC1",
    "Tgt": "human CDK4 and genetically truncated (1-264) cyclin D3 (Homo sapiens, UniProt P11802)",
    "Group": "condition met"
  },
  {
    "Compound": "Nc1nc(NC2CCN(C(=O)c3cc(Cl)ccc3O)CC2)sc1C(=O)c1c(F)cccc1F",
    "Tgt": "human CDK4 and genetically truncated (1-264) cyclin D3 (Homo sapiens, UniProt P11802)",
    "Group": "condition not met"
  },
  {
    "Compound": "Cc1ccc(C(=O)N2CCC(Nc3nc(N)c(C(=O)c4c(F)cccc4F)s3)CC2)c(C)c1",
    "Tgt": "human CDK4 and genetically truncated (1-264) cyclin D3 (Homo sapiens, UniProt P11802)",
    "Group": "condition met"
  },
  {
    "Compound": "Cc1ccc(O)c(C(=O)N2CCC(Nc3nc(N)c(C(=O)c4c(F)cccc4F)s3)CC2)c1",
    "Tgt": "human CDK4 and genetically truncated (1-264) cyclin D3 (Homo sapiens, UniProt P11802)",
    "Group": "condition met"
  },
  {
    "Compound": "Nc1nc(NC2CCN(C(=O)c3c(F)ccc(F)c3F)CC2)sc1C(=O)c1c(F)cccc1F",
    "Tgt": "human CDK4 and genetically truncated (1-264) cyclin D3 (Homo sapiens, UniProt P11802)",
    "Group": "condition met"
  },
  {
    "Compound": "Cc1cccc(C(=O)N2CCC(Nc3nc(N)c(C(=O)c4c(F)cccc4F)s3)CC2)c1C",
    "Tgt": "human CDK4 and genetically truncated (1-264) cyclin D3 (Homo sapiens, UniProt P11802)",
    "Group": "condition met"
  }
]
